The measured values listed here are drawn from the Immune Epitope Database (IEDB).

The entries below are paired with their reported pKd.
# experimentalSystem: HLA-A*24:02
# assayExplanation: IEDB peptide-MHC binding, purified MHC/competitive/radioactivity; filed as Kd, often an IC50 or EC50 that approximates it; bounds were set here for any values at or beyond the usual limits of such assays
# measurementParameters: source organism: Lymphocytic choriomeningitis virus (strain Armstrong)
pKd: −log10 of the molar value.

VCLSGEGWPY
≤ 4.15

Q: I am curious: what pKd value has been reported for ICISLSNSF ?
Result: ≤ 4.11

* * *

# experimentalSystem: HLA-B*40:02
# assayExplanation: IEDB peptide-MHC binding, purified MHC/competitive/radioactivity; filed as Kd, often an IC50 or EC50 that approximates it; bounds were set here for any values at or beyond the usual limits of such assays
# measurementParameters: source organism: Lymphocytic choriomeningitis virus (strain WE)
measuredParameter: Kd (nM)
Write it as a number; the unit nM goes unstated.

Q: I am curious: what Kd value has been reported for LDVLCPSSL ?
Result: 487

* * *

# experimentalSystem: HLA-B*27:05
# assayExplanation: IEDB peptide-MHC binding, purified MHC/direct/fluorescence; filed as Kd, often an IC50 or EC50 that approximates it; bounds were set here for any values at or beyond the usual limits of such assays
# measurementParameters: source organism: Vibrio cholerae
measuredParameter: Kd

Q: I am curious: what Kd value has been reported for GLRWHVRAF ?
Result: ≥ 20 µM

* * *

# experimentalSystem: HLA-A*69:01
# assayExplanation: IEDB peptide-MHC binding, purified MHC/direct/fluorescence; filed as Kd, often an IC50 or EC50 that approximates it; bounds were set here for any values at or beyond the usual limits of such assays
# measurementParameters: source organism: Yellow fever virus
pKd: −log10 of the molar value.
measuredParameter: pKd

Q: I am curious: what pKd value has been reported for KMLDPRQGL ?
Result: ≤ 5.00

* * *

# experimentalSystem: HLA-B*15:01
# assayExplanation: IEDB peptide-MHC binding, purified MHC/direct/fluorescence; filed as Kd, often an IC50 or EC50 that approximates it; bounds were set here for any values at or beyond the usual limits of such assays
# measurementParameters: source organism: Orthohantavirus sinnombreense
pKd: −log10 of the molar value.
measuredParameter: pKd

Q: I am curious: what pKd value has been reported for FRYKSRCYV ?
Result: ≤ 4.70

* * *

# experimentalSystem: HLA-B*27:03
# assayExplanation: IEDB peptide-MHC binding, purified MHC/competitive/fluorescence; filed as Kd, often an IC50 or EC50 that approximates it; bounds were set here for any values at or beyond the usual limits of such assays
# measurementParameters: source organism: Listeria welshimeri serovar 6b str. SLCC5334
measuredParameter: Kd

Q: I am curious: what Kd value has been reported for ELYENKPDV ?
Result: ≥ 20 µM

* * *

# experimentalSystem: HLA-B*07:02
# assayExplanation: IEDB peptide-MHC binding, purified MHC/direct/fluorescence; filed as Kd, often an IC50 or EC50 that approximates it; bounds were set here for any values at or beyond the usual limits of such assays
# measurementParameters: source organism: Bacillus anthracis
pKd: −log10 of the molar value.
measuredParameter: pKd

Q: I am curious: what pKd value has been reported for PTDYAKPQY ?
Result: ≤ 4.70

* * *

The entries below are paired with their reported Kd.
# experimentalSystem: HLA-B*40:01
# assayExplanation: IEDB peptide-MHC binding, purified MHC/direct/fluorescence; filed as Kd, often an IC50 or EC50 that approximates it; bounds were set here for any values at or beyond the usual limits of such assays
# measurementParameters: source organism: Bacillus anthracis

Q: I am curious: what Kd value has been reported for TPRIANRLL ?
Result: ≥ 20 µM

Q: I am curious: what Kd value has been reported for PTDYAKPQY ?
Result: ≥ 20 µM
